What ELISA binding ratio (fold-change over background) was measured for each of the following?
Molecular target: T1, His/Avi-CynoIL18BP (recombinant cynomolgus IL-18BP with His and Avi tags) (cynomolgus monkey)
T1 construct: also called cynomolgus IL-18BP-Avi-His
T1 chain: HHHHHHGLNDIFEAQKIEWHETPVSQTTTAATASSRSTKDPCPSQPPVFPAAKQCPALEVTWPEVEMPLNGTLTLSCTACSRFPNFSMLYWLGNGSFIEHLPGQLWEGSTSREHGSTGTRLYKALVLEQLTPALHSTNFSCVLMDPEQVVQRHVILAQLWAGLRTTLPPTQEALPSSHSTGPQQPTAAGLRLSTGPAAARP
Experiment: ELISA, coated IL-18BP
Report as a plain number; the unit fold over background is understood.

Entry anti-IL18BP antibody BP-05 (antibody, human IgG1, V domains shown) VH: EVQLQQSGPELVKPGASVKIPCKASGYTFTDYNMDWVKQSHGKSLEWIGNINTNNGGTVYNQKFKDKATLTVDKSSSTAYMELRSLTSEDTAVYYCARSDTTVVASRYYALDYWGQGTSVTVSS VL: DIVLTQSPASLAMSLGKRATISCRASESVSIIGTDLIHWYQQKPGQPPKLLIYHASNLETGVPARFSGSGSRTDFTLTIDPVEEDDVAIYYCLQSRKIPPTFGGGTKLEIK has what ELISA binding ratio (fold-change over background)?
9.7

Entry anti-IL18BP antibody BP-06 (antibody, human IgG1, V domains shown) VH: QIQLQQSGPELVKPGASVKISCKASGYTFTDYYLNWVKQTPGQGLEWIGWIYPGSGNTKYTEKFKDKASLTVDTSSNTAYMQLSSLTSDDTAVYFCARRGVAWFAYWGQGTLVTVSA VL: DIKMTQSPSSIYASLGERVTITCKASQDINSYLSWFQQKPGKSPKTLIHRANRLVDGVPSRFSGSGSGQDYSLTISSLEYEDMGIYYCLQHDDFPPTFGAGTNLELK has what ELISA binding ratio (fold-change over background)?
44.3

Entry anti-IL18BP antibody BP-03 (antibody, human IgG1, V domains shown) VH: EVQLQQSGPELVKPGASVKIPCKASGYTFTDYNMDWVKQSHGKSLEWIGNINTDNGGTVYNQKFKGKATLTVDQSSSTAYMELRSLTSEDTAVYYCARSDTTVVASRYYAMDYWGQGTSVTVSS VL: DIVLTQSPASLAMSLGKRATISCRASESVSIIGTNLIHWYQQKPGQPPKLLIYHASNLETGVPARFSGSGSRTDFTLTIDPVEEDDVAIYYCLQSRKIPPTFGGGTKLEIK has what ELISA binding ratio (fold-change over background)?
36.5

Entry anti-IL18BP antibody BP-11 (antibody, human IgG1, V domains shown) VH: QVQLQQSGAELAKPGASVKMSCKASGYTFTNYWMHWVKQRPGQGLEWIGHIDPSTGYTEYNQKFKDKATLTADKSSSTAYMQLSSLTSEDSAVYYCARGLGGLFGYWGQGTLVTVSA VL: DIQMTQSPSSLSASLGGKVTITCKASQDINKFIAWYQHKPGKGPRLLIHHTSTLMPGIPSRFSGSGSGREYSFSISNLEPEDIATYYCLQYDNLLWTFGGGTKLEIR has what ELISA binding ratio (fold-change over background)?
47.6
